Target: T1, biotinylated hIL-33 protein (R&D systems, Cat #3625-IL/CF) (human, UniProt O95760 112-270, biotinylated (sites not given))
T1 construct: Same commercial protein as m21, biotin-labelled; also called biotin-hIL-33
T1 sequence (looked up): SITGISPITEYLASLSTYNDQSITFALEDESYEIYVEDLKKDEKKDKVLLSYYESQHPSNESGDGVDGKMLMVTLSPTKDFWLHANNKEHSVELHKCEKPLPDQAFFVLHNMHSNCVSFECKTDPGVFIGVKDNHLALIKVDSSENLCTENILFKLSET
Experiment: competition ELISA, 30 pM biotin-hIL-33 on coated hST2-hFc
Label T when % Maximum blocking < 70%; otherwise F.

Task: Below 70% on % Maximum blocking? Entry H4H9672P (antibody, human IgG4, V domains shown, Human IgG4 Fc (H4H)) VH: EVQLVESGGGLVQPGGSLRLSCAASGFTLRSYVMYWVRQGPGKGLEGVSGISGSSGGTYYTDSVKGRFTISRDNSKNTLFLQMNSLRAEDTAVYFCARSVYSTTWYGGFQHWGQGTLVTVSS VL: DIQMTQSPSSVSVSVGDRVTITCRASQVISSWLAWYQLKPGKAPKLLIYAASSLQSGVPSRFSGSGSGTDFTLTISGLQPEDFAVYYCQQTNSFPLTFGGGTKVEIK
Output: T

Task: Quick check: % Maximum blocking of H4H9659P (antibody, human IgG4, V domains shown, Human IgG4 Fc (H4H)) VH: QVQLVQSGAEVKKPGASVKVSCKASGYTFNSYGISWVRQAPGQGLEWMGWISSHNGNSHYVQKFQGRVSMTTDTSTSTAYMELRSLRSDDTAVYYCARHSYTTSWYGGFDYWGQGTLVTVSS VL: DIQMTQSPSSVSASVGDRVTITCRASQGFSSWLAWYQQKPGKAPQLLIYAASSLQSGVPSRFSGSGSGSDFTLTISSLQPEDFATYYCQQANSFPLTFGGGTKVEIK under 70%?
Output: F

Task: Item H4H9663P (antibody, human IgG4, V domains shown, Human IgG4 Fc (H4H)) VH: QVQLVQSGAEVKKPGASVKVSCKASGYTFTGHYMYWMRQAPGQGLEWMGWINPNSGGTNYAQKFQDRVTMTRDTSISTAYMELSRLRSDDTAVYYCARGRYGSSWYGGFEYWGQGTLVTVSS VL: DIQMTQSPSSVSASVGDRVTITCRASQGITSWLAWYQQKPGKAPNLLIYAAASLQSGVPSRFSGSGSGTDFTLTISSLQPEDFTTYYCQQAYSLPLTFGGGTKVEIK : % Maximum blocking beneath 70%, strictly?
Output: F

Task: Does the reported % Maximum blocking of H4H9676P (antibody, human IgG4, V domains shown, Human IgG4 Fc (H4H)) VH: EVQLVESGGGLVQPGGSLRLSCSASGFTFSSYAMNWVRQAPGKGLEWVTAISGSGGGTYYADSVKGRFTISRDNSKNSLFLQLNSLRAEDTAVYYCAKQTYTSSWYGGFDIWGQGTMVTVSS VL: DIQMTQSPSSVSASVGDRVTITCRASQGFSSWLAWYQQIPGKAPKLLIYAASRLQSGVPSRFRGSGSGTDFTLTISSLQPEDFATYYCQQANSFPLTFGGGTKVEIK stay below 70%?
Output: T

Task: Determine whether this binder shows % Maximum blocking lower than 70% (ties excluded): H4H9667P (antibody, human IgG4, V domains shown, Human IgG4 Fc (H4H)) VH: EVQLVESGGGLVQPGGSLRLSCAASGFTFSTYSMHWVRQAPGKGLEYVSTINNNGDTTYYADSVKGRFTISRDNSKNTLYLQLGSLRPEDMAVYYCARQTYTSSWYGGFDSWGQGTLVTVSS VL: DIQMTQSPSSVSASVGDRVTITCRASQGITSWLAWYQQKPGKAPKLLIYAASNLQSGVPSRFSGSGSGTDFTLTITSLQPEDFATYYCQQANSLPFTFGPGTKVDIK
Output: F

Task: # TODO verify % Maximum blocking < 70% strictly for this binder: H4H9664P (antibody, human IgG4, V domains shown, Human IgG4 Fc (H4H)) VH: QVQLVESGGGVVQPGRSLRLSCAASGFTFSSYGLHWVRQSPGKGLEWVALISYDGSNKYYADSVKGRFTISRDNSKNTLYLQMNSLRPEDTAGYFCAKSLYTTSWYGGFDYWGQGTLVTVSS VL: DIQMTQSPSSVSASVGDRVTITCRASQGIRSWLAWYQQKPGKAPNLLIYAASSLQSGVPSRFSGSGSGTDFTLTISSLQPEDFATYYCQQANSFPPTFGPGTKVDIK
Output: F

Task: Please check: % Maximum blocking for H4H9660P (antibody, human IgG4, V domains shown, Human IgG4 Fc (H4H)) VH: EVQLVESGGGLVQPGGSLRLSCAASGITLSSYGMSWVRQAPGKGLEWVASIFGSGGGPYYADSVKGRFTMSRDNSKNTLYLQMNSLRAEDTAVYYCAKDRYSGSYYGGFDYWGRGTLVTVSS VL: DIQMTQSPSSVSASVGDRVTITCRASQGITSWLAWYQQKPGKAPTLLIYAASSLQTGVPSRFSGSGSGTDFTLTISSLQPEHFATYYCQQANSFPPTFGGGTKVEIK , strictly under 70% or not?
Output: T

Task: Lab note: confirm whether the reported % Maximum blocking for this binder is below 70%, equality not counting. binder: H4H9665P (antibody, human IgG4, V domains shown, Human IgG4 Fc (H4H)) VH: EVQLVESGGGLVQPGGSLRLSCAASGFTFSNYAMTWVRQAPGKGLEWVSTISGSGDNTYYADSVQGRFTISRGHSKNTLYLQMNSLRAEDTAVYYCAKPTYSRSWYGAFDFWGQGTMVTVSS VL: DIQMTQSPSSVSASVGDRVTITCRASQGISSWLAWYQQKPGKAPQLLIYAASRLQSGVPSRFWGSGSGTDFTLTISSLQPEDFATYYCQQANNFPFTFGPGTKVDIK
Output: T
